meta.source: paper PMC6384891

experimentalSystem: Aβ42 (Homo sapiens)
Construct: Human Aβ42 (4349-v, Peptide Institute); purchased Peptide Institute 4349-v
Sequence (P05067 672-713 limits assumed): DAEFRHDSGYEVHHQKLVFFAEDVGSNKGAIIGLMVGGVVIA
assaySummary: manual MSHTS system, Aβ aggregation inhibition
Type: biochemical
conditionNotes: 1st screening; read-out: EC50 [µM] by MSHTS system, Supplementary Table S2 (converted)
Consider the following compounds and their measured EC50 readings.

# annotated cases, reported EC50 shown
[[record]]
structure = "Nc1ccc(O)c(=O)cc1"
outcomemeasure = "EC50"
observed = "19.1 µM"

[[record]]
structure = "O=c1ccc(-c2ccc([N+](=O)[O-])cc2)ccc1O"
outcomemeasure = "EC50"
observed = "52.5 µM"

[[record]]
structure = "Oc1cc2ccccc2cc1O"
outcomemeasure = "EC50"
observed = "31.4 µM"


Read the next record carefully.
Form entry - test system: Aβ42 (Homo sapiens); read-out: EC50; compound: CN(C)c1ccc(B(O)O)cc1 53.1 µM

* * *

Consider the following compounds and their measured EC50 readings.
experimentalSystem: Aβ (Homo sapiens, UniProt P05067)
Construct: Human Aβ42 (4349-v, Peptide Institute); purchased Peptide Institute 4349-v
Sequence (P05067 672-713 limits assumed): as above
assaySummary: ThT assay of Aβ aggregation
Type: biochemical
conditionNotes: tropolone derivatives; read-out: ThT [µM], EC50, Supplementary Table S4 (converted)
The reply should contain only the number, in µM.

[[record]]
structure = "O=c1ccc(/N=N/c2cc([N+](=O)[O-])cc([N+](=O)[O-])c2)ccc1O"
outcomemeasure = "EC50"
observed = 18.4

[[record]]
structure = "Nc1ccc(O)c(=O)cc1"
outcomemeasure = "EC50"
observed = 87.6

[[record]]
structure = "N#Cc1cccc(/N=N/c2ccc(O)c(=O)cc2)c1"
outcomemeasure = "EC50"
observed = 83


Read the next record carefully.
Consider the compound O=c1ccc(-c2cccc([N+](=O)[O-])c2)ccc1O and give its measured EC50. 75

* * *

experimentalSystem: Aβ42 (Homo sapiens)
Construct: Human Aβ42 (4349-v, Peptide Institute); purchased Peptide Institute 4349-v
assaySummary: manual MSHTS system, Aβ aggregation inhibition
Format: biochemical
conditionNotes: compound library, Aβ aggregation; read-out: EC50 by MSHTS system (MA), Fig. 3
Protocol: The automated MSHTS system used was based on the method described in the Supplementary Methods. In this study, EC50 values of the plant crude extract library and the compound library were measured by the automated MSHTS system and the manual MSHTS system[19],[20], respectively. All fluorescence micrograph images were taken using a 4x objective in the MSHTS systems. […]
outcomeMeasure: EC50 (µM)
The reply should contain only the number, in µM.

[[record]]
structure = "COc1ccc(-c2cccc([N+](=O)[O-])c2)ccc1=O"
observed = 144

[[record]]
structure = "O=c1ccc(/N=N/c2ccc([N+](=O)[O-])cc2)ccc1O"
observed = 258

[[record]]
structure = "COc1ccc(-c2ccc([N+](=O)[O-])cc2)ccc1=O"
observed = 200


Consider the molecule O=Nc1ccc(O)c(=O)cc1 and give its measured EC50. 154

* * *

experimentalSystem: Aβ (Homo sapiens, UniProt P05067)
Construct: Human Aβ42 (4349-v, Peptide Institute); purchased Peptide Institute 4349-v
assaySummary: ThT assay of Aβ aggregation
Type: biochemical
conditionNotes: Aβ aggregation; read-out: EC50 by ThT assay (TA), Fig. 3
outcomeMeasure: EC50 (µM)
The reply should contain only the number, in µM.

# annotated cases, reported EC50 shown
[[record]]
structure = "O=c1cccccc1O"
unittext = "µM"
observed = 1610

[[record]]
structure = "O=Nc1ccc(O)c(=O)cc1"
unittext = "µM"
observed = 152

[[record]]
structure = "O=c1ccc(-c2ccc([N+](=O)[O-])cc2)ccc1O"
unittext = "µM"
observed = 144


Read the next record carefully.
Consider the molecule N#Cc1ccc(/N=N/c2ccc(O)c(=O)cc2)cc1C(F)(F)F and give its measured EC50. 4.86
